Target: Recombinant human CYP 2D6 (Homo sapiens)
Sequence (P10635 whole entry): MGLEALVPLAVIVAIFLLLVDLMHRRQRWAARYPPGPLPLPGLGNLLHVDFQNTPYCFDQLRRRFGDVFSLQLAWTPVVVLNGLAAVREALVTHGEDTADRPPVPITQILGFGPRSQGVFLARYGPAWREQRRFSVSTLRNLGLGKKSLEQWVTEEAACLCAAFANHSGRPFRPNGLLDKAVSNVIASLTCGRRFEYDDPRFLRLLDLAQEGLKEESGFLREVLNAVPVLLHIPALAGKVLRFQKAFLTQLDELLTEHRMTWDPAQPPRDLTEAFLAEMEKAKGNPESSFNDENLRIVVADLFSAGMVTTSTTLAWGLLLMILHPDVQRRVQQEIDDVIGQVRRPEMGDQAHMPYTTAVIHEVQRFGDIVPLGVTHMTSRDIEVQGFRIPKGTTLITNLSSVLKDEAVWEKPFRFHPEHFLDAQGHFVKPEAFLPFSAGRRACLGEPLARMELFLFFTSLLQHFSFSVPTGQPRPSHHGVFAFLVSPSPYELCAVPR
Assay: biochemical
parameter: pIC50
Expect pIC50 as a plain number equal to -log10 of the molar concentration.

# compound, pIC50
rows = [
    ("CN[C@H]1CC[C@@H](c2ccc(Cl)c(Cl)c2)c2ccccc21 [sertraline]", 5.36),
    ("CN(C)CCCC1(c2ccc(F)cc2)OCc2cc(C#N)ccc21 (stereo not shown) [citalopram]", 5.03),
    ("COc1ccc(C(CN(C)C)C2(O)CCCCC2)cc1 (stereo not shown) [venlafaxine]", 4.72),
]

Now look at this one.
Find the recorded pIC50 belonging to CN(C)CCC[C@@]1(c2ccc(F)cc2)OCc2cc(C#N)ccc21 [escitalopram] and report it.
5.13

Hey, just so you know, these numbers are from paper PMC4869338.
